Below, each entry is listed with its recorded pIC50.
Molecular target: Human DP1 receptor (Homo sapiens (Human), UniProt Q13258)
Sequence (Q13258 whole entry): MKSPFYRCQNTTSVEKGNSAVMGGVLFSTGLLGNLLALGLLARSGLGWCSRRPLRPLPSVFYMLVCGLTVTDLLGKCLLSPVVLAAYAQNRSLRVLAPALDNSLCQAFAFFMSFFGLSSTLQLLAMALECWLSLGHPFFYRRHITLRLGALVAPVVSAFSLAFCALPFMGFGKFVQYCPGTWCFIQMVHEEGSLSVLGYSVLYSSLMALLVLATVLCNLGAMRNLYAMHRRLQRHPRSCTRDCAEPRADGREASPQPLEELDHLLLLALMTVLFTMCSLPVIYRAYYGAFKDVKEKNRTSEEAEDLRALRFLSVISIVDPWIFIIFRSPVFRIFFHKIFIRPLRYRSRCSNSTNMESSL
Test: Human DP1 inhibitory activity in DP1-expressing cell (PGD2-induced cAMP)
Type: cell-based
Settings: category of cAMP IC50, human DP1 receptor expressing Jurkut cell
pIC50: −log10 of the molar value.

compound: CC(C)Oc1ccc(S(=O)(=O)N2C[C@H](n3nc(CC(=O)O)c4cccc(F)c43)C[C@@H]2C)cc1
pIC50: > 7.00
--
compound: COc1ccc(S(=O)(=O)N2C[C@@H](C)[C@@H](n3nc(CC(=O)O)c4ccc(C)cc43)C2)cc1
pIC50: > 7.00
--
compound: CCOc1ccc(S(=O)(=O)N2C[C@@H](C)[C@@H](n3nc(CC(=O)O)c4cc(C#N)ccc43)C2)cc1
pIC50: > 7.00
--
compound: CC(C)Oc1ccc(S(=O)(=O)N2C[C@@H](C)[C@@H](n3nc(CC(=O)O)c4ccc(F)cc43)C2)cc1 [Compound I-37]
pIC50: > 7.00
--
compound: CCOc1ccc(S(=O)(=O)N2C[C@@H](C)[C@@H](n3nc(CC(=O)O)c4ccc(OC)cc43)C2)cc1
pIC50: > 7.00
--
compound: CCOc1ccc(S(=O)(=O)N2C[C@@H](C)[C@@H](n3nc(Cc4cc(O)no4)c4ccccc43)C2)cc1
pIC50: 5.30 to 7.00
--
compound: CCOc1ccc(S(=O)(=O)N2C[C@@H](C)[C@@H](n3nc(CC(=O)O)c4ccccc43)C2)c(Br)c1
pIC50: > 7.00
--
compound: CCOc1ccc(S(=O)(=O)N2C[C@@H](C)[C@@H](n3nc(CC(=O)O)c4ccccc43)C2)c(/C=C/COC)c1
pIC50: 5.30 to 7.00
--
compound: Cc1c(CC(=O)O)c2ccccc2n1[C@@H]1C[C@H](C)N(S(=O)(=O)c2ccc(F)cc2)C1
pIC50: 5.30 to 7.00
--
compound: CCOc1ccc(S(=O)(=O)N2C[C@@H](C)[C@@H](n3nc(CC(=O)O)c4ccc(N5CCCC5)cc43)C2)cn1
pIC50: > 7.00
--
compound: CCOc1ccc(S(=O)(=O)N2C[C@H](n3nc(CC(=O)O)c4ccccc43)C(C)(C)C2)cc1
pIC50: 5.30 to 7.00
--
compound: CC(C)Oc1ccc(S(=O)(=O)N2C[C@H](n3nc(CC(=O)O)c4ccc(F)cc43)C[C@@H]2COc2ccc(O)cc2)cc1
pIC50: > 7.00
--
compound: CCOc1ccc(S(=O)(=O)N2C[C@H](n3nc(CC(=O)O)c4ccccc43)[C@H](C)[C@@H]2C#N)cc1
pIC50: > 7.00
--
compound: CCOc1ccc(S(=O)(=O)N2C[C@@H](C)[C@@H](n3nc(CC(=O)O)c4ccc(OC)cc43)C2)cn1
pIC50: 5.30 to 7.00
--
compound: C[C@@H]1CN(S(=O)(=O)c2ccc(Cl)cc2)C[C@@H]1n1nc(CC(=O)O)c2ccc(F)cc21
pIC50: 5.30 to 7.00
--
compound: CCOc1ccc(S(=O)(=O)N2C[C@@H](C)[C@@H](n3cc(CC(=O)O)c4ccc(-c5ncco5)cc43)C2)cc1
pIC50: 5.30 to 7.00
--
compound: CC(C)Oc1ccc(S(=O)(=O)N2C[C@H](n3nc(CC(=O)O)c4ccc(F)cc43)CC23CC3)cc1
pIC50: 5.30 to 7.00
--
compound: CCOc1ccc(S(=O)(=O)N2C[C@@H](C)[C@@H](n3nc(C(C)(C)C(=O)O)c4ccccc43)C2)cc1
pIC50: > 7.00
--
compound: Cc1ccc2c(CC(=O)O)nn([C@H]3CN(S(=O)(=O)c4ccc(OC(C)C)cc4)C[C@H]3C)c2c1 [Compound I-63]
pIC50: > 7.00
--
compound: CCOc1ccc(S(=O)(=O)N2C[C@@H](C)[C@@H](n3nc(CC(=O)O)c4cc(C)ccc43)C2)cc1
pIC50: > 7.00
--
compound: CC(C)NC(=O)[C@@H]1C[C@@H](n2nc(CC(=O)O)c3ccc(F)cc32)CN1S(=O)(=O)c1ccc(OC(C)C)cc1
pIC50: 5.30 to 7.00
--
compound: CCOc1ccc(S(=O)(=O)N2C[C@@H](C)[C@@H](n3nc(C(F)C(=O)O)c4ccccc43)C2)cc1 (stereo partly drawn) [Compound I-338]
pIC50: > 7.00
--
compound: C[C@]1(O)CN(S(=O)(=O)c2ccc(F)cc2)C[C@@H]1n1nc(CC(=O)O)c2ccccc21
pIC50: 5.30 to 7.00
--
compound: O=C(O)Cc1nn([C@H]2C[C@H]3CC[C@@H](C2)N3S(=O)(=O)c2ccc(F)cc2)c2cc(F)ccc12
pIC50: 5.30 to 7.00
--
compound: CC(C)Oc1ccc(S(=O)(=O)N2C[C@H](n3nc(CC(=O)O)c4ccc(F)cc43)C[C@@H]2c2ccccc2F)cc1
pIC50: 5.30 to 7.00
--
compound: Cc1c(CC(=O)O)c2ccccc2n1[C@@H]1C[C@H](C)N(S(=O)(=O)c2ccc(OC(F)F)cc2)C1
pIC50: 5.30 to 7.00
--
compound: CC(C)Oc1ccc(S(=O)(=O)N2C[C@H](n3nc(CC(=O)O)c4ccc(F)cc43)C[C@@H]2CCc2ccccc2)cc1
pIC50: > 7.00
